Target: CST–PP (CST–polymerase α–primase)
Assay: CST–PP binding to template DNA (EMSA) inhibition
Design: species or system human
Conditions: template 9xnoGG, Li+; 25 nM CST–PP, 25 nM template; read-out: IC50binding
Record form. Attribute: pIC50. Fill in for each entry.
Kindly note that pIC50 refers to -log10 of the concentration in mol/L and answer with the value alone.

Challenge: I would be grateful if you could share the reported pIC50 for NCCOc1cc(C(=O)Nc2cc(OCCN)c3ccccc3n2)nc(C(=O)Nc2cc(OCCN)c3ccccc3n2)c1 .
Response given: 6.80

Challenge: I would be grateful if you could share the reported pIC50 for C[n+]1ccc(-c2c3nc(c(-c4cc[n+](C)cc4)c4ccc([nH]4)c(-c4cc[n+](C)cc4)c4ccc([nH]4)c(-c4cc[n+](C)cc4)c4nc2C=C4)C=C3)cc1 .
Response given: 6.70

// data source = paper PMC11331414
